procedure-summary: qHTS for Inhibitors of human tyrosyl-DNA phosphodiesterase 1 (TDP1): qHTS in cells in presence of CPT; further: nearly all actives have a fitted effect of over 55% in size
measurement-parameters: chicken DT40 Tdp1-/-;hTDP1 cells + 20 nM CPT, ATP luminescence, 48 h; series mostly up to 46.2 µM
In all, about 420,000 compounds went through this assay and about 50,000 (12%) were called active. Roughly 26% stayed inconclusive and do not appear here. The call rests on the fitted dose curve; in most records, active means well fitted inhibition curve with a large enough effect; inconclusive means small, poorly fitted or top-dose-only effect; inactive means flat fitted curve, though single readings scatter. This excerpt belongs to a sample that is enriched for actives.
Outcomes: 1 (active), 0 (inactive)

molecule	label
NS(=O)(=O)c1ccc(NC(=O)COC(=O)c2ccc(Cl)nc2)cc1	0
COc1cc(NS(=O)(=O)c2cccs2)cc(OC)c1	0
COc1cc(CNCc2ccc3c(c2)OCO3)c([N+](=O)[O-])cc1OC	0
CCN(CC)c1ccc(NC(=O)CN2CCN(CC(=O)Nc3ccc(Cl)cc3)CC2)cc1	1
COc1ccc(OC)c(C(=O)NC2CCCc3c2cnn3-c2cc(C)cc(C)c2)c1 (configuration not stated)	1
COc1cc2c(cc1OC)C(Cc1cc(OC)c(OC)cc1[N+](=O)[O-])=NCC2	1
CCCc1cc(=O)oc2c(C)c(OCC(=O)N3CCC(C(=O)O)CC3)ccc12	0
COc1ccc(Cl)cc1NC(=O)CCn1c(=O)c2cccn2c2ccccc21	1
Cc1ccc(CNC(=O)C2CCN(S(=O)(=O)c3ccc4nc5c(c(C(=O)O)c4c3)CC(C)CC5)CC2)cc1 (configuration not stated)	0
COc1ccc(CC(NC(C)=O)C(=O)N2CCN(C(=O)Nc3cccc(Cl)c3)CC2)cc1OC (configuration not stated)	0
O=C(NCCCNC(=O)c1ccccc1Cl)c1cnccn1	0
Cc1cccc(CCNS(=O)(=O)c2ccc3c(c2)NC(=O)CO3)c1	0
O=S(O)CNc1ccc(S(=O)(=O)c2ccc(NCS(=O)O)cc2)cc1	0
COc1ccccc1/C=C/C=N/n1c(-c2ccc(Cl)cc2Cl)n[nH]c1=S	0
CCN(CC)c1ccc(NC(=O)CN2CCN(c3ccccn3)CC2)cc1	0
CC(Oc1ccccc1[N+](=O)[O-])C(=O)N/N=C/c1ccoc1 (configuration not stated)	0
COc1cc(CN2CCCN(C)CC2)c([N+](=O)[O-])cc1OC	0
CNC(=S)N/N=C/c1ccc(OCc2ccccc2)c(Br)c1	1
COc1ccc(Cl)cc1C=CC=NNC(=O)c1ccncc1	0
O=C1C=C(c2ccccc2)CCC1	0
COc1ccc(-n2ncc3c2CC(C)(C)CC3NC(=O)CCc2c(C)noc2C)cc1 (configuration not stated)	0
Cc1ccc(NC(=O)CCCn2c(=O)c3cccn3c3ccccc32)cc1Cl	0

Recorded values, source PubChem BioAssay AID686979.
